Tested on: A549
test.method.notes: Antineoplastic activity against human A549 cells measured after 36 hrs by MTT assay
Type: functional, cell-based
experimental.setup: A549, 36 h
reported.endpoint: IC50 (µM)
Please give a number only; it is taken to be in µM.

Use the examples below as a reference point.
Query: Item CC(C)c1ccc2c(c1)CC[C@H]1[C@](C)(CN)CCC[C@]21C.O=C(O)c1nc[nH]c1C(=O)O : provide IC50
Reply: 1.85

Query: Item CC(C)c1ccc2c(c1)CC[C@H]1[C@](C)(CNC(=O)c3ncn(C)c3C(=O)O)CCC[C@]21C : provide IC50
Reply: 12.3

Query: Item CC(C)c1ccc2c(c1)CC[C@H]1[C@](C)(CNC(=O)c3ncn(C)c3C(=O)NC[C@]3(C)CCC[C@]4(C)c5ccc(C(C)C)cc5CC[C@@H]34)CCC[C@]21C : provide IC50
Reply: 17

Query: Item CC(C)c1ccc2c(c1)CC[C@H]1[C@](C)(CN)CCC[C@]21C.CC(C)c1ccc2c(c1)CC[C@H]1[C@](C)(CN)CCC[C@]21C.O=C(O)c1nc[nH]c1C(=O)O : provide IC50
Reply: 4.37

Query: Item COc1cccc2c1C(=O)c1c(O)c3c(c(O)c1C2=O)C[C@@](O)(C(=O)CO)C[C@@H]3O[C@H]1C[C@H](N)[C@H](O)[C@H](C)O1 [DOXORUBICIN] : provide IC50
Reply: 3.35

Next compound, please.
Query: Item CC(C)c1ccc2c(c1)CC[C@H]1[C@](C)(CNC(=O)c3cncn3C)CCC[C@]21C : provide IC50
Reply: 53.2

###

Recorded IC50, one value per entry.
Tested on: HepG2
test.method.notes: Antineoplastic activity against human HepG2 cells measured after 36 hrs by MTT assay
Format: functional, cell-based
experimental.setup: HepG2, 36 h
Please give a number only; it is taken to be in µM.

Use the examples below as a reference point.
Query: Item CC(C)c1ccc2c(c1)CC[C@H]1[C@](C)(CN)CCC[C@]21C.O=C(O)c1nc[nH]c1C(=O)O : provide IC50
Reply: 4.62

Query: Item CC(C)c1ccc2c(c1)CC[C@H]1[C@](C)(CNC(=O)c3ncn(C)c3C(=O)O)CCC[C@]21C : provide IC50
Reply: 6.52

Query: Item CC(C)c1ccc2c(c1)CC[C@H]1[C@](C)(CNC(=O)c3cncn3C)CCC[C@]21C : provide IC50
Reply: 12

Query: Item CC(C)c1ccc2c(c1)CC[C@H]1[C@](C)(CN)CCC[C@]21C.CC(C)c1ccc2c(c1)CC[C@H]1[C@](C)(CN)CCC[C@]21C.O=C(O)c1nc[nH]c1C(=O)O : provide IC50
Reply: 2.91

Next molecule, please.
Query: Item CC(C)c1ccc2c(c1)CC[C@H]1[C@](C)(CNC(=O)c3ncn(C)c3C(=O)NC[C@]3(C)CCC[C@]4(C)c5ccc(C(C)C)cc5CC[C@@H]34)CCC[C@]21C : provide IC50
Reply: 50.5
